Attribution: ChEMBL document CHEMBL1201862

Record form. Attribute: GI50. Fill in for each entry.
# System: HOP-92
# Assay name: NCI tumour cell line growth inhibition, 48 h
The source made the active and inactive calls. No stated cut-off is given here; in the data, active = GI50 up to about 1.1 µM and inactive = higher.

// solved cases for GI50 follow
{"Molecule": "CCN(CC)C(=O)COc1cc2c(O)c3c(O)c(C)c4c(c13)C(=O)C(C)(OC=CC(OC)C(C)C(OC(C)=O)C(C)C(O)C(C)C(O)C(C)C=CC=C(C)C(=O)N2)O4 (stereo unspecified)", "GI50": "> 100 µM (inactive)"}
{"Molecule": "CCCCN(CCCC)C1=Nc2ccccc2-n2c(nnc2C(=O)OCC)C1", "GI50": "33.6 µM (inactive)"}
{"Molecule": "C=CCNC(=O)NC(=O)CSC1=NC(=O)C2(NN1)c1ccccc1-c1ccccc12", "GI50": "> 10 µM (inactive)"}

// for each molecule in input: emit GI50
1. Cn1ccc(C(=O)N2CCSC2=S)c(OCc2ccccc2)c1=O
2. Cc1c2ccccc2nc2[nH]c3ccncc3c12
3. CC1=C(C(=O)CC(=O)C(=O)Nc2ccccc2)Sc2ccccc2N1

["79.1 µM (inactive)", "33 µM (inactive)", "2.84 µM (inactive)"]

----------
# Test system: RPMI-8226
# Assay name: NCI tumour cell line growth inhibition, 48 h
Active and inactive are the calls of the source. No stated cut-off is given here; in the data, active = GI50 up to about 1.1 µM and inactive = higher. Where a SMILES comes first, the peptide text is derived from it. The star is where a group is joined. Boc = CC(C)(C)OC(=O)*; OSu = O=C1CCC(=O)N1O*
Allowed answers: active, inactive

{"Molecule": "CC(C)(C)OC(=O)NC(Cc1ccc(O)cc1)C(=O)NC(CCCCN)C(=O)NC(Cc1ccc(O)cc1)C(=O)NC(CCCCN)C(=O)ON1C(=O)CCC1=O (configuration not stated) (Boc-YKYK-OSu; configuration not given here)", "Qualitative label": "inactive"}

Look up the recorded call for OC1NC2CC3NC(O)C(O)NC3CC2NC1O (configuration not stated) in this test.
inactive

Look up the recorded call for CCNC(=O)C#CC(=O)NCC in this test.
inactive

Look up the recorded call for c1c2c(cc3c1OCO3)-c1cc3ccc4c(c3c[n+]1CC2)OCO4 [COPTISINE CHLORIDE] in this test.
active

Look up the recorded call for O=c1[nH]c(=S)[nH]c(-c2ccccc2)c1Cc1c(O)ccc2ccccc12 in this test.
inactive

Look up the recorded call for CC(=O)O[C@H]1C(=O)[C@@]2(C)[C@H]([C@H](OC(=O)c3ccc([N+](=O)[O-])cc3)[C@]3(O)C[C@H](OC(=O)[C@H](O)[C@@H](NC(=O)c4ccccc4)c4ccccc4)C(C)=C1C3(C)C)[C@]1(OC(C)=O)CO[C@@H]1C[C@@H]2O in this test.
inactive

----------
# Tested on: MDA-MB-231
# Assay name: NCI tumour cell line growth inhibition, 48 h
Calls of active or inactive are those of the source. No stated cut-off is given here; in the data, active = GI50 up to about 1.1 µM and inactive = higher.
Record form. Attribute: GI50. Fill in for each entry.

{"Molecule": "CCCCN(CCCC)C1=Nc2ccccc2-n2c(nnc2C(=O)OCC)C1", "Readout": "GI50", "Result": "38.1 µM (inactive)"}
{"Molecule": "O=C(O)CC(Cc1ccc2c(c1)OCO2)C(=O)O (stereo unspecified)", "Readout": "GI50", "Result": "> 100 µM (inactive)"}
{"Molecule": "CN(C)CCCn1c(Cn2nc3ccccc3n2)nc2cc(C(F)(F)F)ccc21", "Readout": "GI50", "Result": "28.9 µM (inactive)"}
{"Molecule": "O=C(c1ccc(Cl)cc1)C(O)c1ccc(Cl)cc1 (stereo unspecified)", "Readout": "GI50", "Result": "> 100 µM (inactive)"}
{"Molecule": "Oc1nc2c(c(-c3ccc(F)cc3)n1)COC/C2=C\\c1ccc(F)cc1", "Readout": "GI50", "Result": "> 100 µM (inactive)"}

Just so you know, measured GI50 for O=c1[nH]c(=S)[nH]c(-c2ccccc2)c1Cc1c(O)ccc2ccccc12 came out at 38.6 µM (inactive)
